Catalogue of binders with associated In vitro activity (%) vs. GLP-1, cAMP EC50
Target: human GLP-1 receptor (human, UniProt P43220 24-463)
Test: cell-based or functional assay
Bridges are numbered along the chain shown (N, C = ends). Where no end group is shown, it is not given here. [ ]: non-standard residue; d: D form. The star is where a group is joined. Acetyl(2-(4-imidazolyl)) = O=C(Cc1c[nH]cn1)*; Aib = CC(C)(N)C(=O)O
Note: unit % is implicit; provide only the numeric part.

Data request: Can you share its In vitro activity (%) vs. GLP-1, cAMP EC50? I mean this binder: {Acetyl(2-(4-imidazolyl))}-[Aib]QGTFTSDYSIAMDEIHQKDFVNWLLNTKC (bridge 15-19) [triple agonist of SEQ ID NO: 94]
Data returned: 0.5

Data request: Can you share its In vitro activity (%) vs. GLP-1, cAMP EC50? I mean this binder: {Acetyl(2-(4-imidazolyl))}-[Aib]QGTFTSDYSKCLDEKRAKEFVQWLLDHHPSSGQPPPS (bridge 15-19) [triple agonist of SEQ ID NO: 74]
Data returned: 12.9

Data request: Can you share its In vitro activity (%) vs. GLP-1, cAMP EC50? I mean this binder: H[Aib]QGTFTSDYSIAMDEIHQKDFVNWLLAQC (bridge 16-20) [triple agonist of SEQ ID NO: 55]
Data returned: 27.1

Data request: Can you share its In vitro activity (%) vs. GLP-1, cAMP EC50? I mean this binder: HGQGTFTSDCSKYMDGQAAQDFVAWLLAGGPSSGAPPPS [triple agonist of SEQ ID NO: 45]
Data returned: 6.6

Data request: Can you share its In vitro activity (%) vs. GLP-1, cAMP EC50? I mean this binder: Y[Aib]QGTFTSDYSKYLDEKRAKEFVQWLLDHCPSSGQPPPS (bridge 16-20) [triple agonist of SEQ ID NO: 96]
Data returned: 34.4

Data request: Can you share its In vitro activity (%) vs. GLP-1, cAMP EC50? I mean this binder: Y[Aib]QGTFTSDYSKYLDECRAKEFVQWLLDHHPSSGQPPPS (bridge 16-20) [triple agonist of SEQ ID NO: 21]
Data returned: 17.8
